Cited source: paper PMC9476207

# Tested on: IGROV1
# Method Summary: NCI-60 single-dose antiproliferative screen
# Assay type: cell-based
# Study Conditions: Homo sapiens, IGROV-1, 48 h, read-out: growth percent
Form field: activity at 10 µM (one value per entry).
Experimental Endpoint: activity at 10 µM (%)

>>> quantitative_readout("COc1cc(CNC(=O)CCCC/C=C/C(C)C)ccc1OCc1cn(-c2ccc(F)cc2)nn1 [14h]")
97
>>> quantitative_readout("COc1cc(CNC(=O)CCCC/C=C/C(C)C)ccc1OCc1cn(-c2ccccc2OC)nn1 [14l]")
104
>>> quantitative_readout("COc1cc(CNC(=O)CCCC/C=C/C(C)C)ccc1OCc1cn(-c2ccc(Cl)cc2)nn1 [14a]")
93.4
>>> quantitative_readout("COc1cc(CNC(=O)CCCC/C=C/C(C)C)ccc1OCc1cn(-c2ccc(C)cc2)nn1 [14n]")
98.5
>>> quantitative_readout("COc1cc(CNC(=O)CCCC/C=C/C(C)C)ccc1OCc1cn(-c2ccc(Br)cc2)nn1 [14k]")
72.7
>>> quantitative_readout("COc1cc(CNC(=O)CCCC/C=C/C(C)C)ccc1OCc1cn(-c2cccc([N+](=O)[O-])c2)nn1 [14f]")
89.4
>>> quantitative_readout("COc1cc(CNC(=O)CCCC/C=C/C(C)C)ccc1OCc1cn(-c2ccccc2Cl)nn1 [14c]")
98.8
>>> quantitative_readout("COc1cc(CNC(=O)CCCC/C=C/C(C)C)ccc1OCc1cn(-c2ccc(Cl)c(Cl)c2)nn1 [14d]")
104

* * *

# System: NCI/ADR-RES
# Method Summary: NCI-60 single-dose antiproliferative screen
# Type: cell-based
# Study Conditions: Homo sapiens, 48 h, read-out: growth percent
Experimental Endpoint: activity at 10 µM (%)

>>> quantitative_readout("COc1cc(CNC(=O)CCCC/C=C/C(C)C)ccc1OCc1cn(-c2ccc(F)cc2)nn1 [14h]")
70.6
>>> quantitative_readout("COc1cc(CNC(=O)CCCC/C=C/C(C)C)ccc1OCc1cn(-c2ccc(Cl)cc2)nn1 [14a]")
78.1
>>> quantitative_readout("COc1cc(CNC(=O)CCCC/C=C/C(C)C)ccc1OCc1cn(-c2ccccc2F)nn1 [14i]")
89.8
>>> quantitative_readout("COc1cc(CNC(=O)CCCC/C=C/C(C)C)ccc1OCc1cn(-c2cc(OC)c(OC)c(OC)c2)nn1 [14m]")
91.7
>>> quantitative_readout("COc1cc(CNC(=O)CCCC/C=C/C(C)C)ccc1OCc1cn(-c2cccc(Cl)c2)nn1 [14b]")
76.6
>>> quantitative_readout("COc1cc(CNC(=O)CCCC/C=C/C(C)C)ccc1OCc1cn(-c2ccc(C)cc2)nn1 [14n]")
87.4
>>> quantitative_readout("COc1cc(CNC(=O)CCCC/C=C/C(C)C)ccc1OCc1cn(-c2ccc(C)c(C)c2)nn1 [14p]")
80.6
>>> quantitative_readout("COc1cc(CNC(=O)CCCC/C=C/C(C)C)ccc1OCc1cn(-c2ccc(Br)cc2)nn1 [14k]")
72

* * *

# Tested on: MDA-MB-468
# Method Summary: NCI-60 single-dose antiproliferative screen
# Format: cell-based
# Study Conditions: Homo sapiens, MDA-MB-468, 48 h, read-out: growth percent
Use 70% as the dividing line for activity at 10 µM, with the line itself on the T side and lower values as F.

>>> classification("COc1cc(CNC(=O)CCCC/C=C/C(C)C)ccc1OCc1cn(-c2cccc(Cl)c2)nn1 [14b]")
"T"
>>> classification("COc1cc(CNC(=O)CCCC/C=C/C(C)C)ccc1OCc1cn(-c2ccc(Cl)cc2)nn1 [14a]")
"F"
>>> classification("COc1cc(CNC(=O)CCCC/C=C/C(C)C)ccc1OCc1cn(-c2cc(OC)c(OC)c(OC)c2)nn1 [14m]")
"T"
>>> classification("COc1cc(CNC(=O)CCCC/C=C/C(C)C)ccc1OCc1cn(-c2ccc(C)cc2)nn1 [14n]")
"T"
>>> classification("COc1cc(CNC(=O)CCCC/C=C/C(C)C)ccc1OCc1cn(-c2ccc([N+](=O)[O-])cc2)nn1 [14e]")
"T"
>>> classification("COc1cc(CNC(=O)CCCC/C=C/C(C)C)ccc1OCc1cn(-c2ccc(C#N)cc2)nn1 [14j]")
"T"
>>> classification("COc1cc(CNC(=O)CCCC/C=C/C(C)C)ccc1OCc1cn(-c2ccccc2Cl)nn1 [14c]")
"T"
>>> classification("CCc1ccc(-n2cc(COc3ccc(CNC(=O)CCCC/C=C/C(C)C)cc3OC)nn2)cc1 [14o]")
"T"
>>> classification("COc1cc(CNC(=O)CCCC/C=C/C(C)C)ccc1OCc1cn(-c2ccccc2F)nn1 [14i]")
"T"
>>> classification("COc1cc(CNC(=O)CCCC/C=C/C(C)C)ccc1OCc1cn(-c2ccccc2OC)nn1 [14l]")
"T"
>>> classification("COc1cc(CNC(=O)CCCC/C=C/C(C)C)ccc1OCc1cn(-c2cccc([N+](=O)[O-])c2)nn1 [14f]")
"T"
>>> classification("COc1cc(CNC(=O)C[C@H](C)CCC=C(C)C)ccc1OCc1cn(-c2ccc(Cl)cc2)nn1 [18b]")
"F"
